Below, each entry is listed with its recorded growth inhibition.
EXPERIMENT: NCI Yeast Anticancer Drug Screen. Data for the mlh1 rad18 strain (AID 175)
RUN PARAMETERS: S. cerevisiae mlh1 rad18 strain growth inhibition; at 50.0 µM (retest, dose inferred, filed as 5.0); stronger effect = higher value
Compounds without any hit were thinned out: in the full panel of roughly 79,000, 15% have a hit.
Response body: numeric value in %, unit text excluded.

Here are 8 molecules together with their reported answers.
MOLECULE	growth inhibition / %
Fc1cccc(C2SCc3nc4ccccc4n32)c1F (configuration not stated)	7
C=CC(=O)NC(C)C	9
CCN(CC)Cc1cc(Nc2c3ccccc3nc3c2[nH]c2ccccc23)ccc1O	-9
N#C/C(=C1/C(=O)c2ccccc2-c2ccccc21)c1ccccc1	99
COc1ccc2c(c1)CCc1c(-c3noc4c3CCc3cc(OC)ccc3-4)noc1-2	10
COc1c2c(c(C)c3ccc4ccccc4c13)CCN=C2	93
O=C(/C=C/c1ccc2c(c1)OCO2)c1ccc(O)cc1	-17
O=C1OCCCOC(=O)c2cc(ccc2O)OCC#CC#CCOc2ccc(O)c1c2	-4

Value of growth inhibition reported for the molecule `O=C(O)CCCCCCCCCC[S+](CCO)CCO` is 44

Value of growth inhibition reported for the molecule `CC(C)(C)c1ccc(-c2nnc(SCc3ccc(Cl)cc3)n2-c2cccc(C(F)(F)F)c2)cc1` is -29

Value of growth inhibition reported for the molecule `c1ccc(NN=C(c2ccccc2)c2ccccc2)cc1` is 91

Value of growth inhibition reported for the molecule CCCCCC(C)NCCOC(=O)c1ccccc1 (configuration not stated) is 89

---

EXPERIMENT: NCI Yeast Anticancer Drug Screen. Data for the mec2-1 strain (AID 157)
RUN PARAMETERS: S. cerevisiae mec2-1 strain, at 50.0 µM (retest, dose inferred, filed as 5.0)
The panel holds about 79,000 compounds, 15% with a hit somewhere; the sample as a whole holds those more often. The source made the active and inactive calls. No stated cut-off is given here; in the data, active means growth inhibition above about 70%; inactive means the rest.
Choose one outcome from this list and give only that: 1.0 (active), 0.0 (inactive)

COMPOUND	CLASS NAME
CCCCCCCCCCCC(O)=C1C(=O)CC(O)CC1=O (centres undefined)	1.0
CC(C)C(O)C(C)C	0.0
Cc1ccc(S(=O)(=O)/C=C/C(=O)c2ccc3ccccc3c2)cc1	1.0
CC(C)OP(=O)(CCCCCCCCC/C=C/c1ccc2c(c1)OCCOCCOCCOCCO2)OC(C)C	1.0
O=C1c2ccccc2C(=O)N1CCn1ccc(NC(c2ccccc2)(c2ccccc2)c2ccccc2)nc1=O	0.0
Clc1ccccc1NN(Cc1ccccn1)c1ccccc1Cl	0.0
C1CCC(CC[N+]23CC[N+](CCC4CCCC4)(CC2)C3)C1	0.0
O=C1C=CC(=O)N1c1ccccc1[N+](=O)[O-]	1.0
O=C1C=CC(=O)c2cc(Sc3ccccc3)c(=O)ccc21	0.0
COc1ccc2nc3cc(Cl)ccc3c(Nc3ccc(S(N)(=O)=O)cc3)c2c1	0.0

## Input Could you kindly confirm the outcome this assay logged for CCCCCCCCCCCCCC(N)c1ccc(C)cc1 (centres undefined) ?
## Output 1.0

## Input Could you kindly confirm the outcome this assay logged for `O=c1c2cnccc2cc2c3ccccc3ccn12` ?
## Output 0.0

## Input Could you kindly confirm the outcome this assay logged for `O=C1c2cccc3cc([N+](=O)[O-])cc(c23)C(=O)N1O` ?
## Output 0.0

## Input Could you kindly confirm the outcome this assay logged for `Cc1ccsc1C(=S)Nc1ccc(Cl)c(/C=N/OC(C)C)c1` ?
## Output 0.0

## Input Could you kindly confirm the outcome this assay logged for COc1nc(NC2OCC(O)C(O)C2O)c(Cl)c(=O)n1C (centres undefined) ?
## Output 0.0

## Input Could you kindly confirm the outcome this assay logged for `O=C(CSc1nccc(=O)[nH]1)c1ccccc1` ?
## Output 0.0

## Input Could you kindly confirm the outcome this assay logged for `O=C(c1ccc(Cl)c([N+](=O)[O-])c1)c1ccc(Cl)c([N+](=O)[O-])c1` ?
## Output 1.0

## Input Could you kindly confirm the outcome this assay logged for `O=C(OCCN=c1c2ccccc2ccc2ccccc12)c1ccccc1` ?
## Output 1.0

## Input Could you kindly confirm the outcome this assay logged for `Cc1coc(C)c1C(=S)Nc1ccc(Cl)c(C(=O)OC(C)C)c1` ?
## Output 1.0

## Input Could you kindly confirm the outcome this assay logged for `ClC1=C(Cl)C(Cl)(C(Cl)(Cl)Cl)C(Cl)=C1Cl` ?
## Output 1.0

## Input Could you kindly confirm the outcome this assay logged for `Nc1ccccc1Sc1ccc(F)cc1[N+](=O)[O-]` ?
## Output 0.0

## Input Could you kindly confirm the outcome this assay logged for CC1Cc2cc(O)c(O)cc2-c2cc(O)c(O)cc2CC1C (centres undefined) ?
## Output 1.0

## Input Could you kindly confirm the outcome this assay logged for `Cn1nc(N)c2cccnc21` ?
## Output 0.0

## Input Could you kindly confirm the outcome this assay logged for `CCCCCCCCCCCCNC(=O)C[n+]1cccc(C(N)=O)c1` ?
## Output 1.0
